The reader will find reported ddG of mutation (higher = less stable) values listed item by item below.
B1: Ribonuclease, P00648 (parent)
chain: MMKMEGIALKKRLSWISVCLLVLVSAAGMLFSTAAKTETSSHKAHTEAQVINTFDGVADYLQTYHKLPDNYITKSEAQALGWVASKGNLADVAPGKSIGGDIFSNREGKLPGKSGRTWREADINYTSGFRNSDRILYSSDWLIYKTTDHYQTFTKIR

Variants of: B1
Details: Bacillus amyloliquefaciens; pH 6.3; 25 °C; Urea; Fluorescence; MES 1 M; structure 1BNI; whole UniProt chain shown
# number only, unit kcal/mol dropped from output

{"columns": ["variant.spec", "ddG of mutation (higher = less stable) [kcal/mol]"],
 "data": [
  ["H65A", 2.15]
]}

Lookup result for `K74A` ; measured ddG of mutation (higher = less stable): -0.53

Lookup result for `H65G` ; measured ddG of mutation (higher = less stable): 0.89

Lookup result for `A79G` ; measured ddG of mutation (higher = less stable): 0.91
